# Test system: biotinyl-Leu-oxazolone
# Assay details: self-aminoacylation, catalytic enhancement (BLO) (fold over background); higher = more active; k-Seq, kA / k0A0; sequences stand for … in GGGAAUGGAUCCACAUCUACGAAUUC…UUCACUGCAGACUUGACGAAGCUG
This sample holds only a part of the variants without activity.
Please note: Satisfied applies when self-aminoacylation is 1 or greater, and Not satisfied applies otherwise.

- Polymer sequence: "CCACAAUUCAAGUAAUCGGUC [Fam1B.1 aminoacylation ribozyme variant]"
  Category label: "Not satisfied"
- Polymer sequence: "AAGUUUGCUAAUUGUCGCCAG [Fam3.1 aminoacylation ribozyme variant]"
  Category label: "Satisfied"
- Polymer sequence: "AUUACCCUGGACAUCGAUUGA [Fam2.1 aminoacylation ribozyme variant]"
  Category label: "Not satisfied"
- Polymer sequence: "UAGUUUGCUAAUAUUCGCAAG [Fam3.1 aminoacylation ribozyme variant]"
  Category label: "Satisfied"
- Polymer sequence: "AUUUACCUAGAUCAUCGGGUG [Fam2.2 aminoacylation ribozyme variant]"
  Category label: "Satisfied"
- Polymer sequence: "AUACACCUAGGUCAUCGGGUA [Fam2.2 aminoacylation ribozyme variant]"
  Category label: "Satisfied"
- Polymer sequence: "AUUCACAUGGGUCAUCGGGUG [Fam2.2 aminoacylation ribozyme variant]"
  Category label: "Satisfied"
- Polymer sequence: "AAGUUUGCUAAUAGUCGUAAA [Fam3.1 aminoacylation ribozyme variant]"
  Category label: "Not satisfied"
- Polymer sequence: "AUUACCGUGGUCAUAGAGUGA [Fam2.1 aminoacylation ribozyme variant]"
  Category label: "Satisfied"

Source listed as the supplement of paper PMC9233669.
